Experiment: qHTS assay to test for compound auto fluorescence at 590 nm (red) in HEK293 cell free culture (AID 720683)
Settings: cell-free medium autofluorescence, Ex540/Em590 red; series mostly up to 91.3 µM
Text: U.S. Tox21 Program National Center for Advancing Translational Sciences [NCATS] NIH Chemical Genomics Center [NCGC] U.S. Environmental Protection Agency [EPA] National Institutes of Environmental Health Sciences [NIEHS] National Toxicology Program [NTP] U.S. Food and Drug Administration [FDA] Tox21 Assay Overview: Compound auto fluorescence often interferes with screening of the compound library against various biological targets and signaling pathways. […] This assay includes the red fluorescence data. […]
Calls of active or inactive are those of the source. Calls come from the whole dose curve; as a rule, active = well fitted curve in the direction sought with a large enough effect in the repeat runs; inconclusive = weak or mixed curves; inactive = flat fitted curve, though single readings scatter.
Property: fluorescence, % of fluorescent control

Completed entries (count: 6):
| Smiles Entry | Property | Result |
| --- | --- | --- |
| O=C(O)CP(=O)(O)O | fluorescence, % of fluorescent control | inactive |
| O=C(O)c1cn(-c2ccc(F)cc2)c2cc(N3CCNCC3)c(F)cc2c1=O | fluorescence, % of fluorescent control | inactive |
| Oc1ccc(Cl)cc1Cc1cc(Cl)ccc1O | fluorescence, % of fluorescent control | inactive |
| C[N+]1([O-])CCOCC1 | fluorescence, % of fluorescent control | inactive |
| O=Cc1ccc(Cl)cc1 | fluorescence, % of fluorescent control | inactive |
| CC(=O)C1=C(C)[C@@H]2C[C@@]3(C1)[C@H](C)CC[C@H]3C2(C)C | fluorescence, % of fluorescent control | inactive |

For the next question, use this compound.
**Q:** Dear colleague, I am looking for the recorded fluorescence, % of fluorescent control of the following compound: `CCc1cc(C(C)(C)C)c(O)c(C(C)(C)C)c1`
**A:** inactive

====

Test: qHTS assay to identify small molecule agonists of the sonic hedgehog signaling (Shh) pathway - cell viability counter screen (AID 1259366); note: nearly all actives have a fitted effect of over 50% in size
Conditions: NIH/3T3 Gli1-Luc viability, CellTiter-Fluor, 24 h; series mostly up to 92.4 µM
Records with an inconclusive call do not appear. Active and inactive are the calls of the source. The call rests on the fitted dose curve; in most records, active means well fitted cell-killing curve with a large enough effect in the repeat runs; inconclusive means weak or mixed curves, or effect the other way; inactive means flat fitted curve, though single readings scatter.
Log the outcome using a class from active, inactive

Answered cases to consult:
| Compound | Class Assignment |
| --- | --- |
| Oc1c(Cl)cc(Cl)cc1Sc1cc(Cl)cc(Cl)c1O | inactive |
| CC(C)(C)c1cc(C(C)(C)C)c(O)c(C(C)(C)C)c1 | inactive |
| CCCNC(C)C(=O)Nc1ccccc1C (centres undefined) | inactive |
| COc1ccc(Cc2cnc(N)nc2N)cc1OC | inactive |

**Q:** Hi team, can someone confirm the assay call for `CCc1ccc(C(c2ccc(CC)cc2)C(Cl)Cl)cc1` ?
**A:** inactive

**Q:** Called result for `Cc1scc2c1N(C(=O)CN1CCN(C)CC1)c1ccccc1NC2=O`
**A:** inactive

**Q:** I'd appreciate the recorded outcome for `CO[Si](OC)(OC)c1ccccc1` from this test.
**A:** inactive

**Q:** Please let me know the test result on file for `O=C(O)CP(=O)(O)O` .
**A:** inactive

**Q:** Hello, I am checking results. What call was entered for `Cc1cc(OCCOCC[N+](C)(C)Cc2ccccc2)ccc1C(C)(C)CC(C)(C)C` ?
**A:** active

====

Target: Nuclear receptor subfamily 1 group I member 3 (Homo sapiens)
Test: qHTS assay to identify small molecule antagonists of the constitutive androstane receptor (CAR) signaling pathway (AID 1224838);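 note: HepG2 cells stably expressing hCAR with CYP2B6 luciferase reporter stimulated by CITCO; nearly all actives have a fitted effect of over 40% in size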
Details: HepG2-CYP2B6-hCAR luciferase, CITCO-stimulated, 24 h; series mostly up to 92.4 µM
Inconclusive results are not listed. The source made the active and inactive calls. The call rests on the fitted dose curve; in most records, active means well fitted inhibition curve with a large enough effect in the repeat runs; inconclusive means weak or mixed curves, or effect the other way; inactive means no such curve, though single readings can be large or run the other way.
Your response should consist of one outcome taken from t for active, f for inactive

Worked examples follow.
| Compound | Class Assignment |
| --- | --- |
| c1cnc2cc3c(cc2n1)C1CNCC3C1 | f |
| COc1ccc(COC(C)=O)cc1 | f |
| CC(C)(C)NCC(O)COc1ccccc1OCC1CCCO1 (stereo not given) | f |
| CC(C)(O)CCC(C)(C)O | f |
| CCCCCCCCCCCCc1ccccc1O | t |
| O=Cc1ccc(Cl)cc1 | f |
| OCCN1CCNCC1 | f |
| Cc1cc(OCCOCC[N+](C)(C)Cc2ccccc2)ccc1C(C)(C)CC(C)(C)C | f |
| CC[C@@H](N)CO | f |

With those in mind, consider the next compound.
**Q:** // outcome(item) with item = `CCCN[C@H]1CCc2nc(N)sc2C1`
**A:** f

These entries and their values trace back to PubChem BioAssay (Tox21).
